# assayTarget: full-length beta-Catenin (Uniprot ID P35222) (Homo sapiens (Human)) (UniProt P35222)
# Sequence (P35222 2-781 limits assumed): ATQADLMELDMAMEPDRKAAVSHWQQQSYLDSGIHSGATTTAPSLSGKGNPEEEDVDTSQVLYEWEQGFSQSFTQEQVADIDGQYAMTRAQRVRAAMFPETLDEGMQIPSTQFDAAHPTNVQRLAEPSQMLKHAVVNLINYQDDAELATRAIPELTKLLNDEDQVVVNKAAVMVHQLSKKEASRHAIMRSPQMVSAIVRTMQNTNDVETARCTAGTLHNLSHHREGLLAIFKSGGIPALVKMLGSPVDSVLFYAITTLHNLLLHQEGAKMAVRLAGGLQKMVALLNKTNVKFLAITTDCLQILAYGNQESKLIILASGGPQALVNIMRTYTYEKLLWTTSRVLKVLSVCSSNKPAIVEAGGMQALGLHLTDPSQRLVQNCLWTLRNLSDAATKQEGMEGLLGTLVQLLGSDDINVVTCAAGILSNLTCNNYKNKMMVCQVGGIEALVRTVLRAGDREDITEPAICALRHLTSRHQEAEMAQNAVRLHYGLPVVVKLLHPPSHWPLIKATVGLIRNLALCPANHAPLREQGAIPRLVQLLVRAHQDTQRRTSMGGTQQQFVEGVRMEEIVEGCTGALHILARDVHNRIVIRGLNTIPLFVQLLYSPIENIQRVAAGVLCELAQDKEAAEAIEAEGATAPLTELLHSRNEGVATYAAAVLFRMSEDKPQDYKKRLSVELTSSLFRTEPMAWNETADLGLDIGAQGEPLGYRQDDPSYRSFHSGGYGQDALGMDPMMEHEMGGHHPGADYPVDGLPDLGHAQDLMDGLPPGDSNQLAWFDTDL
# runDescription: fluorescence polarization competition vs 5FAM-TCF4(10-53) on full-length beta-catenin
pIC50: −log10 of the molar value. Starred links: 1 amine or outer side, 2 acyl side, 3 side chain; linkers in the order of their positions; H or OH if unused. Positions of bridges follow the written chain, without caps; N, C: chain ends. Non-standard residues stand in square brackets, D forms with d. Primed or numbered codes have the meaning given here. PyrS2″ = (S)-3-amino-1-((pent-4-en-1-yloxy)carbonyl)pyrrolidine-3-carboxylic acid (stapling residue), C=CCCCOC(=O)N1CC[C@@](N[*:1])(C(=O)[*:2])C1; B5(4) = 2,2-bis(4-pentenyl)glycine = 2-amino-2-(pent-4-en-1-yl)hept-6-enoic acid (stitching residue), C=CCCCC(CCCC=C)(N[*:1])C(=O)[*:2]; B5(25) = 2-amino-2-(pent-4-en-1-yl)hept-6-enoic acid (stitching residue), C=CCCCC(CCCC=C)(N[*:1])C(=O)[*:2]; EtGA = (S)-2-amino-3-((carboxymethyl)(ethyl)amino)propanoic acid, CCN(CC(=O)[*:3])C[C@H](N[*:1])C(=O)[*:2]; Phe(2-Cl) = N[C@@H](Cc1ccccc1Cl)C(=O)O; Bta = N[C@@H](Cc1csc2ccccc12)C(=O)O; αAllylPro = C=CC[C@@]1(C(=O)O)CCCN1; tBuAla = CC(C)(C)C[C@H](N)C(=O)O; 3Thi = N[C@@H](Cc1ccsc1)C(=O)O; Cha = N[C@@H](CC1CCCCC1)C(=O)O
resultType: pIC50

[P] Ac-[αAllylPro]D[Cha][B5(4)]DDAAFS[PyrS2″][Phe(2-Cl)][Bta]L-NH2 (staple 1-4, 4-11) [I-1138]
[Q] Ac-[αAllylPro]D[tBuAla][B5(25)]D[EtGA]AAFT[PyrS2″][3Thi][Bta]Q-NH2 (staple 1-4, 4-11; not fully specified; printed as Ac-PL3-Asp-Npg-B5-Asp-EtGA-Ala-Ala-Phe-Thr-PyrS2-3Thi-BztA-Gln-NH2) [I-969]
Q: // returns P or Q , whichever has the lower pIC50 Pick one; state its label.
A: Q
